Please go through the items and note down their melting point.
One number for each entry, in °C.

Examples from the recorded data:
compound	quantity measured	experimental result
COc1ccc(C2CCCCC2)cc1-c1csc(NC(=O)N2CCN(C[C@@H]3CCCN(CCCCC(=O)O)C3)CC2)n1 [compound 9]	melting point	153
CCCCc1ccc(OCC)c(-c2csc(NC(=O)N3CCN(C[C@@H]4CCCN(C5CC5)C4)CC3)n2)c1 [compound 23]	melting point	86
COc1ccc(C2CCCCC2)cc1-c1csc(NC(=O)N2CCN(C3CCCCC3)CC2)n1 [compound 10]	melting point	110
COc1ccc(C2CCCCC2)cc1-c1csc(NC(=O)N2CCN(C3CCS(=O)(=O)CC3)CC2)n1 [compound 33]	melting point	204
COc1ccc(C2CCCCC2)cc1-c1csc(NC(=O)N2CCN(C[C@@H]3CCCN(S(=O)(=O)C4CC4)C3)CC2)n1 [compound 29]	melting point	114
COc1ccc(C2CCCCC2)cc1-c1csc(NC(=O)N2CCN(C3CCSCC3)CC2)n1 [compound 41]	melting point	118
COc1ccc(C2CCCCC2)cc1-c1csc(NC(=O)N2CCN(CC3CCOC(C)(C)C3)CC2)n1 (centres unmarked) [compound 40]	melting point	98

As a next step, examine the compound that follows.
-- ask Requested read-out: melting point. Entry: COc1ccc(C2CCCCC2)cc1-c1csc(NC(=O)N2CCN(C3CCOCC3)CC2)n1 [Compound No 11]
-- reply 226

====

Could you please report measured pIC50 for the items listed next?
assay target: UniProt P41597
Sequence (P41597 1-360 isoform P41597-2): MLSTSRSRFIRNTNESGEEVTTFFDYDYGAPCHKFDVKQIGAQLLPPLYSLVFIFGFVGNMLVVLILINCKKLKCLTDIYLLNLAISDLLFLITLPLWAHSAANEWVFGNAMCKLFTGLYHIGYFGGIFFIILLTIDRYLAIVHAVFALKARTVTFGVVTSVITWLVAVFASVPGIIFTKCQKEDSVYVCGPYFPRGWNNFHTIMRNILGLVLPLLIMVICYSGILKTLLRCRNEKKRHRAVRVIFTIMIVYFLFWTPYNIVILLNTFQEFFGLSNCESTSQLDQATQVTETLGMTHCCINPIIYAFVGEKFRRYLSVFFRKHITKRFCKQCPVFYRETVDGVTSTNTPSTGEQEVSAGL
Give bare numbers, as −log10 of the molar value.

compound	assay target	pIC50
COc1ccc(C2CCCCC2)cc1-c1csc(NC(=O)N2CCN(CC3CCCCN3S(=O)(=O)c3cnn(C)c3C)CC2)n1 (stereo not drawn) [compound 45]	UniProt P41597	7.14

Below are some compounds; for each one, tell me its pIC50.
1. COc1ccc(C2CCCCC2)cc1-c1csc(NC(=O)N2CCN(C3CCS(=O)(=O)CC3)CC2)n1 [compound 33]
2. CCCCc1ccc(OCC)c(-c2csc(NC(=O)N3CCN(C[C@@H]4CCCN(C5CC5)C4)CC3)n2)c1 [compound 23]
3. COc1ccc(C2CCCCC2)cc1-c1csc(NC(=O)N2CCN(C[C@@H]3CCCN(CCCCC(=O)O)C3)CC2)n1 [compound 9]
4. COc1ccc(C2CCCCC2)cc1-c1csc(NC(=O)N2CCN(C3CCSCC3)CC2)n1 [compound 41]
5. COc1ccc(C2CCCCC2)cc1-c1csc(NC(=O)N2CCN(CC3CCOC(C)(C)C3)CC2)n1 (stereo not drawn) [compound 40]

-- reply
7.70
8.10
8.40
7.41
7.09

Ref: patent US7825112B2
